The reported numbers originate from patent US20110105457A1.

pIC50: −log10 of the molar value.
The next entries give measured pIC50 for UniProt:P11712.
Sequence (P11712 whole entry): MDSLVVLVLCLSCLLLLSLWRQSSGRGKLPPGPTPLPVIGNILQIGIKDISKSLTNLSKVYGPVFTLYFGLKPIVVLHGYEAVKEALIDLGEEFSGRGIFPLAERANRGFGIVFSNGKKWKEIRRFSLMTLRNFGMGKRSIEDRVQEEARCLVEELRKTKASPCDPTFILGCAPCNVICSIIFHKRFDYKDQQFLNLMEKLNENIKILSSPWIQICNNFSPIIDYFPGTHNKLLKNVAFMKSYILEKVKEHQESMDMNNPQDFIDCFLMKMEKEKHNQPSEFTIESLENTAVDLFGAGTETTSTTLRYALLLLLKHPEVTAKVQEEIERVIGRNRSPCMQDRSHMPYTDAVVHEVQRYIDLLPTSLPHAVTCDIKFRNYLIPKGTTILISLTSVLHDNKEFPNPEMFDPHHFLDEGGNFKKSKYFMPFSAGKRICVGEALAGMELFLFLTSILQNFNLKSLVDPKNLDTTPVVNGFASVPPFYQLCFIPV
measured attribute: pIC50

smiles str | assay system | result
COc1cccc(-c2ccc3nc(NC(=O)NCCC(=O)O)cn3n2)c1 | UniProt:P11712 | < 4.70
COc1cncc(-c2ccc3nc(NC(=O)NCC(=O)O)cn3n2)c1 | UniProt:P11712 | < 4.70
COc1cccc(-c2ccc3nc(NC(=O)NCc4nn[nH]n4)cn3n2)c1 | UniProt:P11712 | < 4.70

---

assay system: PI-3 kinase γ (Homo sapiens, UniProt P48736)
Sequence (P48736 whole entry): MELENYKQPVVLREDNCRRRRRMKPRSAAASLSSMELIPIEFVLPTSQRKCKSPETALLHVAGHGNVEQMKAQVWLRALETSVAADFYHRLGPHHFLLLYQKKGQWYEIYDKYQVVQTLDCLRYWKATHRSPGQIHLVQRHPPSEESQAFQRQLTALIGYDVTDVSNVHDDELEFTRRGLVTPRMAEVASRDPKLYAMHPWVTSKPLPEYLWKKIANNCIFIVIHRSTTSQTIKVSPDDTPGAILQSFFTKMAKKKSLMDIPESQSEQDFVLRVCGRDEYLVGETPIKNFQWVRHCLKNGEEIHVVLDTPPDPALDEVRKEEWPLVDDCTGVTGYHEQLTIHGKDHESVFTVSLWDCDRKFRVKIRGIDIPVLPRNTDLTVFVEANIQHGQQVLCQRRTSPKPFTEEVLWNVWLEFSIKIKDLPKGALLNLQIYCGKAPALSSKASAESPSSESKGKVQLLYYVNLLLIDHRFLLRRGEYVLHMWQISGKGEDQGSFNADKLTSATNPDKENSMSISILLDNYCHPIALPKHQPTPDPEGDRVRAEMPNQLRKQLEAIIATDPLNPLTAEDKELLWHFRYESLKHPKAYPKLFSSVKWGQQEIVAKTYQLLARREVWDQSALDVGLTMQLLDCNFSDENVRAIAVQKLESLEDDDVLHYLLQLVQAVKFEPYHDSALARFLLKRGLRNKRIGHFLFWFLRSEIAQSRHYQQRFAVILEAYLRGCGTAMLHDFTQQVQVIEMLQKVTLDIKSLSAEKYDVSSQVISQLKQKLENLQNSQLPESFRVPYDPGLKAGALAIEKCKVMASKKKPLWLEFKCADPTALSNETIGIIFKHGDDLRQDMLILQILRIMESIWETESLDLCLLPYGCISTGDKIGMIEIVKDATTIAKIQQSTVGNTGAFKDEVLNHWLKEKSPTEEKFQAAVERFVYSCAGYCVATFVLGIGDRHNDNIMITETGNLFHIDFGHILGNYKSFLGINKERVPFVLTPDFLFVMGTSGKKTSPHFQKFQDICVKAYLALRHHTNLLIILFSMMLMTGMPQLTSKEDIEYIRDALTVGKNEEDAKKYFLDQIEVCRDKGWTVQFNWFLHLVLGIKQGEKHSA
protocol summary: PI3Kγ inhibitory activity, PI3-kinase HTRF assay (Millipore)
Type: biochemical
condition info: 0.5 h; compound 50 μM; read-out: Inhibition ratio % (50 μM)
measured attribute: inhibition at 50 µM (%)

smiles str | measured attribute | result number
CNC(=O)Nc1cn2nc(-c3cccc(CCCO)c3)ccc2n1 | inhibition at 50 µM | 79
CNC(=O)Nc1cn2nc(-c3ccccc3)ccc2n1 | inhibition at 50 µM | 82
COC(=O)c1cccc(C(=O)Nc2cn3nc(-c4cccc(OC)c4)ccc3n2)c1 | inhibition at 50 µM | 52
CNC(=O)Nc1cn2nc(-c3ccc(C)cc3)ccc2n1 | inhibition at 50 µM | 77
COc1cccc(-c2ccc3nc(Nc4cccc([N+](=O)[O-])c4)cn3n2)c1 | inhibition at 50 µM | 87
